# Test system: Pasteurella multocida
# Assay notes: minimum inhibitory concentration (MIC)
# Reported conditions: isolate (source animal id): 204
Property measured: minimum inhibitory concentration (µg/mL)
Numbers only, in µg/mL.

CS(=O)(=O)c1ccc([C@@H](O)[C@@H](CF)NC(=O)C(Cl)Cl)cc1 [Florfenicol]: 0.5

Turning now to a further record.
Need minimum inhibitory concentration, item C=C[C@]1(C)C[C@@H](OC(=O)CSCCN(CC)CC)[C@]2(C)[C@H](C)CC[C@]3(CCC(=O)[C@H]32)[C@@H](C)[C@@H]1O [Tiamulin] 32

###

Assign minimum inhibitory concentration to each entry below.
# System: Escherichia coli
# Assay notes: minimum inhibitory concentration (MIC)
# Reported conditions: isolate (source animal id): 182

CC[C@H]1OC(=O)C[C@@H](O)[C@H](C)[C@@H](O[C@@H]2O[C@H](C)[C@@H](O[C@H]3C[C@@](C)(O)[C@@H](O)[C@H](C)O3)[C@H](N(C)C)[C@H]2O)[C@@H](CC=O)C[C@@H](C)C(=O)/C=C/C(C)=C/[C@@H]1CO[C@@H]1O[C@H](C)[C@@H](O)[C@@H](OC)[C@H]1OC: > 32 µg/mL

Record minimum inhibitory concentration for all entries; do not skip any.
1. CNC(C)C1CCC(N)C(OC2C(N)CC(N)C(OC3OCC(C)(O)C(NC)C3O)C2O)O1 (configuration not stated)
2. CN1C[C@@H]2C[C@H]1CN2c1cc2c(cc1F)c(=O)c(C(=O)O)cn2C1CC1
3. CO/N=C(\C(=O)N[C@@H]1C(=O)N2C(C(=O)O)=C(CSC(=O)c3ccco3)CS[C@H]12)c1csc(N)n1

1: ≤ 1 µg/mL; 2: ≤ 0.12 µg/mL; 3: 0.5 µg/mL

Record minimum inhibitory concentration for all entries; do not skip any.
1. NC[C@@H]1O[C@H](O[C@H]2[C@@H](O)[C@H](O[C@@H]3[C@@H](O)[C@H](N)C[C@H](N)[C@H]3O[C@H]3O[C@H](CN)[C@@H](O)[C@H](O)[C@H]3N)O[C@@H]2CO)[C@H](N)[C@@H](O)[C@@H]1O
2. CCC[C@@H]1C[C@@H](C(=O)N[C@@H]([C@H]2O[C@H](SC)[C@H](O)[C@@H](O)[C@H]2O)[C@H](C)Cl)N(C)C1
3. CCN1CCN(c2cc3c(cc2F)c(=O)c(C(=O)O)cn3C2CC2)CC1

≤ 4 µg/mL
> 16 µg/mL
≤ 0.12 µg/mL
